Numbers sourced from patent US20220153851A1.

# testedTarget: T1, cynoCSF1R ECD-Fc (cynomolgus)
# T1 construct: also called cynomolgus CSF1R ECD
# T1 sequence (chain, as listed by the source): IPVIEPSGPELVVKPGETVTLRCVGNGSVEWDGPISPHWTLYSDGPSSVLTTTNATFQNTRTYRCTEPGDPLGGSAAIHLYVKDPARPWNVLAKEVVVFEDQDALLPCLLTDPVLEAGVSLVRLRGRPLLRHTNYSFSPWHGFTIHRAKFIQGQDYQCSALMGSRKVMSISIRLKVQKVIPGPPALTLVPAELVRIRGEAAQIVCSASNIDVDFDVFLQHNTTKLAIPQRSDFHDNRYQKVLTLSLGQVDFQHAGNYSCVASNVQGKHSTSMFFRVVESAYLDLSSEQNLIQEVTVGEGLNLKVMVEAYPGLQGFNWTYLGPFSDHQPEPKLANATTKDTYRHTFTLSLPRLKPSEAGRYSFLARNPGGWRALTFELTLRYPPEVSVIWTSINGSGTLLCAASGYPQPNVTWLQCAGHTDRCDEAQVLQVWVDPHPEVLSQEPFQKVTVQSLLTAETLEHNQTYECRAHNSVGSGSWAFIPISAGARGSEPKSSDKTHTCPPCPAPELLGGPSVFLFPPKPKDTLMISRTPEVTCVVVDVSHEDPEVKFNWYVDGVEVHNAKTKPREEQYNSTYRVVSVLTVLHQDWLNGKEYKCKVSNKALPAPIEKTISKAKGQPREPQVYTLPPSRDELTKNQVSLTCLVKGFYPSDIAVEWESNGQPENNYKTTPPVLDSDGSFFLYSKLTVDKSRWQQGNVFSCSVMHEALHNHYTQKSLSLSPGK
# testDetails: competition ELISA, blocking of human IL34 binding to cynoCSF1R ECD-Fc
recordedMetric: IC50 (µg/mL)

binder: h0302-L2H2 (antibody, human IgG4 S228P, kappa, V domains shown, also called Ab12; huAb 0302-L2H2) VH: QVQLVQSGAEVKKPGSSVKVSCKASGYTFSDFNIHWVRQAPGQGLEWIGYINPYTDVTVYNEKFKGRATLTSDKSTSTAYMELSSLRSEDTAVYYCASYFDGTFDYALDYWGQGTLVTVSS VL: EIVVTQSPATLSLSPGERATLSCRASESVDNYGLSFMNWFQQKPGQAPRLLIYTASNLESGIPARFSGSGSRTDFTLTISSLEPEDFAVYYCQQSKELPWTFGQGTKVEIKR
recordedMetric: IC50
recordedResult: 0.279
--
binder: cAb 0301 (antibody, human IgG4 S228P, kappa, V domains shown) VH: EVQLQQSGPELVRPGASVKMSCKASGYTFTDNYMIWVKQSHGKSLEWIGDINPYNGGTTFNQKFKGKATLTVEKSSSTAYMQLNSLTSEDSAVYYCARESPYFSNLYVMDYWGQGTSVTVSS VL: NIVLTQSPASLAVSLGQRATISCKASQSVDYDGDNYMNWYQQKPGQPPKLLIYAASNLESGIPARFSGSGSGTDFTLNIHPVEEEDAATYYCHLSNEDLSTFGGGTKLEIKR
recordedMetric: IC50
recordedResult: 0.0295
